B1: PHTF1 (parent)
chain: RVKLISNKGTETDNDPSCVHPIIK

Variants of: B1
Experiment: protein stability index of a GFP-peptide fusion (GPS, HEK-293T) (PSI 1-6); higher = more stable;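 also: lentivirally expressed fusions sorted by FACS into six bins by GFP to DsRed ratio, PSI derived from sequencing read proportions per bin multiplied by bin number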
Conditions: c terminus: a fixed tail appended
// class 0 strictly below 4 in protein stability index; class 1 otherwise

Example results:
E11L :: class 0
I23Y :: class 1
P21F :: class 0
L4A :: class 1
I23D :: class 1
P16G :: class 1
E11F :: class 0

Read the next record carefully.
Hello, I need to know if C18S has measured protein stability index not below 4. Thanks! class 1
